pEC50 listing for selected compounds.
TESTED ON: human mAChR M1 (Homo sapiens, UniProt P11229)
Sequence (P11229 whole entry): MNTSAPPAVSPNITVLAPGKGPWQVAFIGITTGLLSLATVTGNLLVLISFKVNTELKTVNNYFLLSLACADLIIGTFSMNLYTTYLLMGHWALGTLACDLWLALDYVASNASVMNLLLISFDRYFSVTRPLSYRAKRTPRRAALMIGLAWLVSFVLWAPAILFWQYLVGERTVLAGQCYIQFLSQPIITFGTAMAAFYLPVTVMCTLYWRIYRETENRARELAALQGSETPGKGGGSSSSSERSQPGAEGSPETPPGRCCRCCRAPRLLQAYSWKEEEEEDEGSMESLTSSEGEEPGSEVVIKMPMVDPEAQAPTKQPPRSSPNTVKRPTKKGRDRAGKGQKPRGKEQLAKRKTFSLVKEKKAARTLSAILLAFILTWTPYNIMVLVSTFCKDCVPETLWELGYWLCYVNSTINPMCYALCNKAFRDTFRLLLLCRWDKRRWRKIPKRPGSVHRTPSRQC
PROTOCOL DESCRIPTION: mAChR M1 cell-based functional assay: calcium mobilization, positive allosteric modulator mode (increase in EC20 acetylcholine response)
REPORTED CONDITIONS: Table 2; human M1; read-out: Human M1 EC50
Friendly reminder that pEC50 comes from taking -log10 of the concentration in mol/L.

1) Cn1ccc(-c2ccc(Cc3cc(C(=O)N[C@H]4CCCCC[C@@H]4O)nc4ccsc34)cn2)n1 ... 7.11
2) Cn1ccc2nc(C(=O)NC3CC(F)(F)C3)cc(Cc3ccc(-c4nccs4)cc3)c21 ... 6.09
3) O=C(NCC1CCCCO1)c1cc(Cc2ccc(-n3cccn3)cc2)c2sccc2n1 (centres unmarked) ... 5.94
4) CC1(C)CC(NC(=O)c2cc(Cc3ccc(-c4cncs4)cc3)c3sccc3n2)CCO1 (centres unmarked) ... 6.07
5) Cc1nc(-c2ccc(Cc3cc(C(=O)N[C@@H]4CCOC4)nc4ccsc34)cc2)co1 ... 5.41
6) Cn1cc(-c2ccc(Cc3cc(C(=O)N[C@H]4CCCC[C@@H]4O)nc4ccsc34)c(F)c2)cn1 ... 5.44

Enquiry: Report pEC50 for Cn1ccc2nc(C(=O)NC3CCOCC3)cc(Cc3ccc(-c4nccs4)cc3)c21 please.
Return: 6.44

Enquiry: Again, but for Cc1ccc(Cc2cc(C(=O)NC3C4CC5C[C@H]3CC(O)(C5)C4)nc3ccsc23)cn1 (some centres unmarked)
Return: 6.02

Enquiry: Again, but for Cc1nc(-c2ccc(Cc3cc(C(=O)NC4CCCN(C)C4)nc4ccsc34)cc2)cs1 (centres unmarked)
Return: 5.48

Enquiry: Again, but for CO[C@@H]1CCCC[C@H]1NC(=O)c1cc(Cc2ccc(C(F)(F)F)nc2)c2sccc2n1
Return: 5.17

Enquiry: Again, but for Cn1ccc2nc(C(=O)N[C@H]3CC[C@@H]3O)cc(Cc3ccc(-c4cscn4)cc3)c21
Return: 6.97

Enquiry: Again, but for Cc1csc2c(Cc3ccc(-n4cccn4)cc3)cc(C(=O)N[C@@H]3COCC[C@H]3O)nc12
Return: 6.87

Enquiry: Again, but for Cc1nc(-c2ccc(Cc3cc(C(=O)N[C@@H]4COCC[C@H]4O)nc4ccsc34)cc2)co1
Return: 7.60

Enquiry: Again, but for Cc1cc2nc(C(=O)N[C@H]3CCC[C@@H]3O)cc(Cc3ccc(-n4cccn4)cc3)c2s1
Return: 5.57

Enquiry: Again, but for Cn1ccc2nc(C(=O)N[C@H]3CCCC[C@@H]3O)cc(Cc3ccc(-n4cccn4)cc3)c21
Return: 7.86

Enquiry: Again, but for Cn1ccc2nc(C(=O)N[C@H]3CCOC3)cc(Cc3ccc(-c4cscn4)cc3)c21
Return: 5.73

Enquiry: Again, but for Cc1nc(-c2ccc(Cc3cc(C(=O)NC4CC(C)OC(C)C4)nc4ccsc34)cc2)co1 (centres unmarked)
Return: 6.15

Enquiry: Again, but for Cc1nc(-c2ccc(Cc3cc(C(=O)N[C@H]4CCOC[C@@H]4O)nc4ccsc34)cc2)cs1
Return: 7.82

Enquiry: Again, but for Cn1ccc(-c2ccc(Cc3cc(C(=O)NC4CCOCC4(C)C)nc4ccsc34)cn2)n1 (centres unmarked)
Return: 6.77

Enquiry: Again, but for Cc1ccc(Cc2cc(C(=O)NC34CC5CC(CC(O)(C5)C3)C4)nc3ccsc23)cn1
Return: 5.40

Enquiry: Again, but for O=C(N[C@H]1CCCCC[C@@H]1O)c1cc(Cc2ccc(-c3cscn3)cc2)c2sccc2n1
Return: 6.84

Enquiry: Again, but for Cn1ccc(-c2ccc(Cc3cc(C(=O)NC4CC5(COC5)C4)nc4ccn(C)c34)cc2)n1
Return: 6.74

Enquiry: Again, but for Cn1cc(-c2ccc(Cc3cc(C(=O)N[C@@H]4CCC[C@H]4O)nc4ccsc34)cc2)nn1
Return: 8.01

Enquiry: Again, but for O=C(N[C@H]1CCCOC1)c1cc(Cc2ccc(-c3cscn3)cc2)c2sccc2n1
Return: 5.95

Enquiry: Again, but for Cc1ccc(Cc2cc(C(=O)Nc3cc(C)n[nH]3)nc3ccsc23)cn1
Return: 5.17

###

TESTED ON: human mAChR M1 (Homo sapiens)
PROTOCOL DESCRIPTION: mAChR M1 cell-based functional assay: calcium mobilization, positive allosteric modulator mode (increase in EC20 acetylcholine response)
REPORTED CONDITIONS: Table 2; human M1; read-out: Human M1 Emax (%)
Experimental: a. Cell Lines Expressing Muscarinic Acetylcholine Receptors Chinese hamster ovary (CHO-K1) cells stably expressing rat (r)M1 were purchased from the American Type Culture Collection and cultured according to their indicated protocol. […] Calcium flux was measured using the Functional Drug Screening System (FDSS) 6000 (Hamamatsu Corporation, Tokyo, Japan) as an increase in the fluorescent static ratio. […]
Emax listing for selected compounds.
Report the figure in % without appending any unit label.

Worked examples, 3 compounds total:
1. Cn1ccc(-c2ccc(Cc3cc(C(=O)N[C@@H]4CCCOC4)nc4ccsc34)cn2)n1 ... 70.6
2. O=C(NCC1CCOCC1)c1cc(Cc2ccc(-n3cccn3)cc2)c2sccc2n1 ... 74.4
3. Cc1nc(-c2ccc(Cc3cc(C(=O)NC4CCCN(C)C4)nc4ccsc34)cc2)co1 (centres unmarked) ... 75.4

Enquiry: Report Emax for Cc1ncc(Cc2cc(C(=O)NC3CCOCC3)nc3ccsc23)s1 please.
Return: 60.9

Enquiry: Again, but for Cn1ccc(-c2ccc(Cc3cc(C(=O)NCC4CCOCC4)nc4ccn(C)c34)cn2)n1
Return: 79.9

Enquiry: Again, but for O=C(NCc1cc[nH]n1)c1cc(Cc2ccc(-n3cccn3)cc2)c2sccc2n1
Return: 67.8

Enquiry: Again, but for Cc1csc2c(Cc3ccc(-n4cccn4)cc3)cc(C(=O)N(C)C3CCOCC3)nc12
Return: 54.9

Enquiry: Again, but for O=C(N[C@@H]1CCC[C@H]1O)c1cc(Cc2ccc(-n3cccn3)cc2)c2sccc2n1
Return: 92.7

Enquiry: Again, but for Cn1cc(-c2ccc(Cc3cc(C(=O)NC4CCOC(C)(C)C4)nc4ccsc34)cc2)cn1 (centres unmarked)
Return: 60.4

Enquiry: Again, but for Cc1ccc(Cc2cc(C(=O)NC3(C#N)CC3)nc3ccsc23)cn1
Return: 26.4

Enquiry: Again, but for Cn1cc(-c2ccc(Cc3cc(C(=O)NCC4CCOC4)nc4ccsc34)cn2)cn1 (centres unmarked)
Return: 85.6

Enquiry: Again, but for Cn1cc(-c2ccc(Cc3cc(C(=O)N[C@H]4CCCCC[C@@H]4O)nc4ccsc34)cn2)cn1
Return: 66.2

Enquiry: Again, but for O=C(NC1CC(F)(F)C1)c1cc(Cc2ccc(-c3nccs3)cc2)c2sccc2n1
Return: 30.4

Enquiry: Again, but for Cn1cc(-c2ccc(Cc3cc(C(=O)N[C@@H]4CCOC4)nc4ccsc34)cn2)cn1
Return: 85.5

###

TESTED ON: human mAChR M1 (Homo sapiens, UniProt P11229)
PROTOCOL DESCRIPTION: mAChR M1 cell-based functional assay: calcium mobilization, positive allosteric modulator mode (increase in EC20 acetylcholine response)
REPORTED CONDITIONS: Table 2; human M1; read-out: Human M1 Emax (%)
MEASUREMENT TYPE: Emax (%)
Report the figure in % without appending any unit label.

1. Cn1ccc(-c2ccc(Cc3cc(C(=O)NC4CC5(COC5)C4)nc4ccsc34)cc2)n1 [Compound 252] ... 78.4

Enquiry: Report Emax for Cc1ncc(Cc2cc(C(=O)NC3CCCNC3=O)nc3ccsc23)s1 (stereo not drawn) [Compound 143] please.
Return: 50.5

Enquiry: Again, but for COC1CC(NC(=O)c2cc(Cc3ccc(-c4cn(C)nc4C)cc3)c3sccc3n2)C1 (stereo not drawn) [Compound 246]
Return: 16

Enquiry: Again, but for Cc1nc(-c2ccc(Cc3cc(C(=O)NC4CCOCC4)nc4c(C)csc34)cc2)co1 [Compound 329]
Return: 73.5

###

TESTED ON: human mAChR M1 (Homo sapiens, UniProt P11229)
PROTOCOL DESCRIPTION: mAChR M1 cell-based functional assay: calcium mobilization, positive allosteric modulator mode (increase in EC20 acetylcholine response)
REPORTED CONDITIONS: Table 2; human M1; read-out: Human M1 Emax (%)
Emax listing for selected molecules.
Report the figure in % without appending any unit label.

1. CO[C@@H]1CCCC[C@H]1NC(=O)c1cc(Cc2ccc(C)nc2)c2scc(C)c2n1 [Compound 106] ... 82.1
2. Cc1nc(-c2ccc(Cc3cc(C(=O)N[C@H]4CCCOC4)nc4ccsc34)cc2)cs1 [Compound 189] ... 72
3. Cc1ccc(Cc2cc(C(=O)NC3CCN(C)CC3)nc3c(C)csc23)cn1 [Compound 112] ... 36.7
4. O=C(NC1CCCCC1)c1cc(Cc2ccc(-c3cscn3)cc2)c2sccc2n1 [Compound 209] ... 69.7
5. Cc1nn(C)cc1-c1ccc(Cc2cc(C(=O)N[C@H]3CCC[C@@H]3O)nc3ccsc23)cc1 [Compound 247] ... 30.6
6. Cc1csc2c(Cc3ccc(-n4cccn4)cc3)cc(C(=O)N[C@H]3CC[C@@H]3O)nc12 [Compound 113] ... 83.8
7. Cc1ncc(Cc2cc(C(=O)N[C@@H]3CCCC[C@H]3O)nc3ccsc23)cn1 [Compound 127] ... 79.2
8. O=C(NC1CN(CC(F)(F)F)C1)c1cc(Cc2ccc(-n3cccn3)cc2)c2sccc2n1 [Compound 432] ... 47.5

Proceeding to the next molecule to report its Emax.
Enquiry: Report Emax for Cc1csc2c(Cc3ccc(-c4ccn(C)n4)cc3)cc(C(=O)N[C@H]3CCOC3)nc12 [Compound 306] please.
Return: 79.3
